# Experiment: in vitro
# Test Parameters: human, plasma
Quantity: fraction unbound

{"columns": ["Compound", "Value Measured"],
 "data": [
  ["COc1cc2c(cc1OC)CN(CCc1ccc(NC(=O)c3cc(OC)c(OC)cc3NC(=O)c3cnc4ccccc4c3)cc1)CC2 [[^11C]tariquidar]", "< 0.01"]
]}

---

# System Name: human ABCG2 (Homo sapiens)
# Construct: P. Borst and Dr. A. Schinkel (Netherlands Cancer Institute); host or cells: MDCK-II (MDCK-ABCG2)
# Sequence (Q9UNQ0 whole entry): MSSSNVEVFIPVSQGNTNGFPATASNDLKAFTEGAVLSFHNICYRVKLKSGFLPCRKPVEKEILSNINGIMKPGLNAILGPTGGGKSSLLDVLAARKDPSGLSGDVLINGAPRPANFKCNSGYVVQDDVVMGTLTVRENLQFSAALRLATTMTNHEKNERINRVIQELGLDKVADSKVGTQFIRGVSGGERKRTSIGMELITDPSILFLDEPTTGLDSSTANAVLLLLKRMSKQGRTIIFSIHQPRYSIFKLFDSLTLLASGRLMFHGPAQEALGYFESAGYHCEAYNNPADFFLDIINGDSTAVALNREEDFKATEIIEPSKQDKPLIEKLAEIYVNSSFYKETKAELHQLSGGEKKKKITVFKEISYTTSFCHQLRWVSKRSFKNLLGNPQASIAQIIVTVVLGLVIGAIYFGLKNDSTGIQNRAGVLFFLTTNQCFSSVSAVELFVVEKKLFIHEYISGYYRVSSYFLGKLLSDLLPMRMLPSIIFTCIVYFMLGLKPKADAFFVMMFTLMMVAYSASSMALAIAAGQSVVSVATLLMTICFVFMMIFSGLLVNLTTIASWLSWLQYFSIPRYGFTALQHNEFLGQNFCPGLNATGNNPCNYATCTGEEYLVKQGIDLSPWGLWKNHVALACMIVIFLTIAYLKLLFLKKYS
# Experiment: In vitro uptake assay in MDCK-ABCG2 cells: tariquidar inhibition of ABCG2-mediated transport
# Format: cell-based
# Test Parameters: IC50 of tariquidar for inhibition of ABCG2 transport, [^3H]tariquidar (1 nmol/L) as substrate, 120 min uptake
Quantity: IC50 (µM)

{"columns": ["Item Smiles", "Value Measured"],
 "data": [
  ["COc1cc2c(cc1OC)CN(CCc1ccc(NC(=O)c3cc(OC)c(OC)cc3NC(=O)c3cnc4ccccc4c3)cc1)CC2", 0.31]
]}
